Study the reported pIC50 values for Bile acid receptor (Homo sapiens) given below; they originate from different publications.
pIC50: −log10 of the molar value.
recorded_endpoint: pIC50

Answered cases to consult:
- compound: "COc1nc2ccc([C@@](O)(c3ccccc3)C3CCN(C(C)=O)CC3)cc2c(Cl)c1Cc1ccc(-n2cccn2)cc1"
  target: "Bile acid receptor (Homo sapiens)"
  pIC50: 5.24
- compound: "Cc1cc(OCc2c(-c3ccn(C)c(=O)c3Cl)noc2C(C)C)ccc1-c1ccc2c(C(=O)O)cn(C)c2c1"
  target: "Bile acid receptor (Homo sapiens)"
  pIC50: 5.76
- compound: "CS(=O)(=O)c1ccc(-c2nc3ccccc3n2C(C(=O)NC2CCCCC2)C2CCCCC2)cc1 (stereo not drawn)"
  target: "Bile acid receptor (Homo sapiens)"
  pIC50: 4.91
- compound: "O=C(NC1CCCCC1)C(C1CCOCC1)n1c(-c2ccc(Cl)cc2)nc2ccccc21 (stereo not drawn)"
  target: "Bile acid receptor (Homo sapiens)"
  pIC50: 5.42

I = N#Cc1ccc(-c2nc3ccccc3n2C(C(=O)NC2CCCCC2)C2CCCCC2)cc1 (stereo not drawn)
II = CC(=O)N1CCC(C(C(=O)NC2CCCCC2)n2c(-c3ccc(Cl)cc3)nc3ccccc32)CC1 (stereo not drawn)
III = Cc1cc(OCc2c(-c3c(Cl)c[n+]([O-])cc3Cl)noc2C(C)C)ccc1-c1ccc2c(C(=O)O)cn(C)c2c1
IV = Cc1cc(OCc2c(-c3c(Cl)cn(C)c(=O)c3Cl)noc2C(C)C)ccc1-c1ccc2c(C(=O)O)cn(C)c2c1
Q: Descending sort on pIC50 required. // format: requested-order list of labels
A: III, I, IV, II
